Test system: NCI/ADR-RES ovarian
Assay: NCI tumour cell line growth inhibition, 48 h
GI50 by entry:
measurementType: GI50

INSERT INTO results (compound, testresult) VALUES
  ('N#CC1=C(N)N=C(N2CCOCC2)C(C#N)C12Nc1ccccc1S2 (stereo not drawn)', '39300 nM'),
  ('Cc1ccc(NC(=S)NNC(=S)Nc2ccc(C)cc2)cc1', '2550 nM'),
  ('NS(=O)(=O)c1ccc(N=Nc2c(O)[nH]c3ccc(C(=O)NCCCn4ccnc4)cc23)cc1', '> 25000 nM'),
  ('COc1cc2c(Nc3ccc(-c4ccc(N)cc4)cc3)ncnc2c(OC)c1OC', '4540 nM'),
  ('O=C1NC(=Nc2ccc(O)cc2)S/C1=C\c1cccs1', '> 100000 nM'),
  ('COc1cccc2nc(Nc3cccc(NC(=O)c4ccc(N5CCN(C)CC5)c(C(F)(F)F)c4)c3)ccc12', '1500 nM'),
  ('COc1cccc(C(=O)NNc2nc(Cl)nc(N3CCN(C(c4ccccc4)c4ccccc4)CC3)n2)c1', '2180 nM'),
  ('CC(C)[C@@]12C[C@@H](OC(=O)COC(=O)c3ccccc3)[C@@](C)(O1)[C@@H]1CC[C@@H](C)[C@H]1[C@@H]2OC(=O)/C=C/c1ccccc1', '470 nM');
